Listed compounds paired with reported CTG-3D luminescence at 96 h
System: HCI-008 (organoid from a HER2-enriched breast cancer xenograft)
experiment_notes: CTG-3D luminescence at 96 h relative to day-0 seeding control (ratio to day 0); higher = more growth / less cytotoxicity; PDxO 3D drug screen (set 2), 96 h, CTG-3D normalised to day-0 seeding control.
condition_set: 0.00025 µM; days in culture: 325
reported_property: CTG-3D luminescence at 96 h

{"smiles_string": "CC(C)n1nc(-c2ccc3oc(N)nc3c2)c2c(N)ncnc21", "tested_system": "HCI-008", "val": 1.96}
{"smiles_string": "CS(=O)(=O)CCNCc1ccc(-c2ccc3ncnc(Nc4ccc(OCc5cccc(F)c5)c(Cl)c4)c3c2)o1", "tested_system": "HCI-008", "val": 1.81}
{"smiles_string": "C[C@@H](Nc1cc(F)cc(F)c1)c1cc(C(=O)N(C)C)cc2c(=O)cc(N3CCOCC3)oc12", "tested_system": "HCI-008", "val": 2.3}

---

Test system: HCI-024 (organoid from a breast cancer xenograft)
experiment_notes: CTG-3D luminescence at 96 h relative to day-0 seeding control (ratio to day 0); higher = more growth / less cytotoxicity; PDxO 3D drug screen (set 2), 96 h, CTG-3D normalised to day-0 seeding control.
condition_set: 100 µM; days in culture: 231
Listed compounds paired with reported CTG-3D luminescence at 96 h

{"compound": "CCOc1ccn(-c2ccc(F)cc2)c(=O)c1C(=O)Nc1ccc(Oc2ccnc(N)c2Cl)c(F)c1", "CTG-3D luminescence at 96 h": 0.471}
{"compound": "COc1cccc2c1C(=O)c1c(O)c3c(c(O)c1C2=O)C[C@@](O)(C(=O)CO)C[C@@H]3O[C@H]1C[C@H](N)[C@@H](O)[C@H](C)O1 [epirubicin]", "CTG-3D luminescence at 96 h": 0.0266}
{"compound": "CO[C@H]1C[C@@H]2CC[C@@H](C)[C@@](O)(O2)C(=O)C(=O)N2CCCC[C@H]2C(=O)O[C@H]([C@H](C)C[C@@H]2CC[C@@H](OCCO)[C@H](OC)C2)CC(=O)[C@H](C)/C=C(\\C)[C@@H](O)[C@@H](OC)C(=O)[C@H](C)C[C@H](C)/C=C/C=C/C=C/1C", "CTG-3D luminescence at 96 h": 0.000185}

---

Tested on: HCI-008
experiment_notes: CTG-3D luminescence at 96 h relative to day-0 seeding control (ratio to day 0); higher = more growth / less cytotoxicity; PDxO 3D drug screen, 96 h, CTG-3D normalised to day-0 seeding control.
condition_set: 0.1 µM; days in culture: 244
reported_property: CTG-3D luminescence at 96 h

{"compound": "C[C@@H]1COCCN1c1cc(C2([S@](C)(=N)=O)CC2)nc(-c2cc[nH]c3nccc2-3)n1 [ceralasertib]", "tested_system": "HCI-008", "val": 2.01}
{"compound": "CN(Cc1cnc2nc(N)nc(N)c2n1)c1ccc(C(=O)N[C@@H](CCC(=O)O)C(=O)O)cc1 [methotrexate]", "tested_system": "HCI-008", "val": 2.13}
{"compound": "Nc1ccn([C@@H]2O[C@H](CO)[C@@H](O)C2(F)F)c(=O)n1 [gemcitabine]", "tested_system": "HCI-008", "val": 1.26}
{"compound": "NC1(C(=O)N[C@@H](CCO)c2ccc(Cl)cc2)CCN(c2nc[nH]c3nccc2-3)CC1 [capivasertib]", "tested_system": "HCI-008", "val": 1.34}
